- Target or system: human neuronal constitutive NOS (hncNOS) (Homo sapiens, UniProt P29475)
- Construct: made in house; host or cells: insect cells, baculovirus vector
- Assay notes: biochemical
- Assay conditions: recombinant human neuronal constitutive NOS, 37° C., 15 minutes, calmodulin 40-100 nM; read-out: IC50 hncNOS
pIC50: −log10 of the molar value. Counter-ions that a name gives are not always drawn.
Quantity: pIC50

Would you please look over these solved cases?
> print(dat)
                                   molecule  recorded.value
1  N=C1CCCCC(CC2CO2)N1 (stereo not drawn) [Example 21, Monohydrochloride]            5.08
2  Cl.N=C1CCCCC(Cc2ccccc2)N1 (stereo not drawn) [Example 5, Monohydrochloride]            4.82
3  N=C1CCCCC(C/C=C/c2ccccc2)N1 (stereo not drawn) [Example 34, Monohydrochloride]            4.62
4  N=C1CCCCC(Cc2ccccc2)N1 (single isomer, unassigned; (+)) [Example 14, Monohydrochloride]            4.52
5  N=C1CCCC(CC2CCCCC2)N1 (stereo not drawn) [Example 95, Monohydrochloride]            4.55
6  C[C@@H]1CC(=N)N[C@H]1Cc1ccccc1 (relative stereo) [Example 64, Monohydrochloride]            5.08
7  N=C1CCCCC(CCCc2ccccc2)N1 (stereo not drawn) [Example 37, Monohydrochloride]            3.93

[a] N=C1CCCCC(CC2CCCCC2)N1 (stereo not drawn) [Example 9, Monohydrochloride]
[b] N=C1CCCCC(Cc2ccccc2)N1 (single isomer, unassigned; (-)) [Example 16, Monohydrochloride]
Ask: Between a and b , whose measured pIC50 reads higher? Write the label of whichever entry you select.
Reply: b
(b: 4.85, a: 4.13)

----------
- Target or system: human endothelial constitutive NOS (hecNOS) (Homo sapiens, UniProt P29474)
- Assay notes: Citrulline Assay for Nitric Oxide Synthase, hecNOS
- Assay conditions: recombinant human endothelial constitutive NOS, 37° C., 15 minutes, calmodulin 40-100 nM
- Description: Citrulline Assay for Nitric Oxide Synthase Nitric oxide synthase activity was measured by monitoring the conversion of L-[2,3-3H]-arginine to L-[2,3-3H]-citrulline (1,2). […] The [3H]-citrulline was separated by chromatography on Dowex 50W X-8 cation exchange resin and radioactivity quantified with a liquid scintillation counter.
Where a name gives a salt, the structure may show the parent alone.
Quantity: IC50 (µM)

> print(dat)
                                   compound                          target.or.system  recorded.value
1  N=C1CCCCC(CCCc2ccccc2)N1 (centres unmarked) [Example 37, Monohydrochloride]  human endothelial constitutive NOS (hecNOS) (Homo sapiens, UniProt P29474)             836
2  N=C1CCCCC(Cc2ccccc2)N1 (single isomer, unassigned; (-)) [Example 16, Monohydrochloride]  human endothelial constitutive NOS (hecNOS) (Homo sapiens, UniProt P29474)             599
3  N=C1CCCCC(CC2CCCCC2)N1 (centres unmarked) [Example 9, Monohydrochloride]  human endothelial constitutive NOS (hecNOS) (Homo sapiens, UniProt P29474)             575

[I] N=C1CCCCC(Cc2ccccc2)N1 (single isomer, unassigned; (+)) [Example 14, Monohydrochloride]
[II] N=C1CCCCC(C/C=C/c2ccccc2)N1 (centres unmarked) [Example 34, Monohydrochloride]
Ask: Exercise: compare I and II ; which one has the greater IC50? I would appreciate it if you answered with the label of your choice.
Reply: I
(I: 651 µM, II: 183 µM)
